The entries below come with measured GI50 values attached.
Test system: HCT-15
Method notes: NCI tumour cell line growth inhibition, 48 h

[
  {
    "Compound": "O=C1c2ccccc2C(=O)N1CCCCCCNOCCCN1C(=O)c2ccccc2C1=O",
    "Measurement unit": "µM",
    "Qualifier sign": "=",
    "GI50": 40.2
  },
  {
    "Compound": "c1ccc(C[P+]2(c3ccccc3)c3ccccc3-c3ccccc32)cc1",
    "Measurement unit": "µM",
    "Qualifier sign": ">",
    "GI50": 100
  },
  {
    "Compound": "CCOc1ccccc1/N=N/C1C(=O)N(C(=O)CC(=O)Nc2ccccc2Cl)N=C1C (stereo not given)",
    "Measurement unit": "µM",
    "Qualifier sign": "=",
    "GI50": 26.9
  },
  {
    "Compound": "COC(=O)CC1C[C@H](C#N)N(C(=O)c2ccccc2)C[C@@H]1CC[N+](=O)[O-] (stereo not given in full)",
    "Measurement unit": "µM",
    "Qualifier sign": ">",
    "GI50": 100
  },
  {
    "Compound": "COc1ccc(-c2cc(-c3ccc(C)cc3)n(C3OC(COC(C)=O)C(OC(C)=O)C(OC(C)=O)C3OC(C)=O)c(=S)c2C#N)cc1 (stereo not given)",
    "Measurement unit": "µM",
    "Qualifier sign": ">",
    "GI50": 100
  }
]

---

System: MDA-N
Method notes: NCI tumour cell line growth inhibition, 48 h
Active and inactive are the calls of the source. Cut-off read from the data, not from the text of the source: active = GI50 up to about 1.1 µM and inactive = higher.
Classes used: label 1 = active, label 0 = inactive

[
  {
    "Molecule": "C[C@@H](NC(=O)Nc1cccc(C(=O)Nc2cc(C(C)(C)C)ccc2C(=O)O)n1)c1ccccc1",
    "Target under test": "MDA-N",
    "Assigned class": "label 0"
  },
  {
    "Molecule": "O=C1CC(=O)c2c(Cl)sc(Cl)c21",
    "Target under test": "MDA-N",
    "Assigned class": "label 0"
  },
  {
    "Molecule": "COc1cccc(/C=C\\c2ccnc3ccccc23)c1",
    "Target under test": "MDA-N",
    "Assigned class": "label 0"
  },
  {
    "Molecule": "CCOC(=O)/C(=C\\NC(=S)Nc1ccc(Cl)c(Cl)c1)C(=O)c1ccccc1",
    "Target under test": "MDA-N",
    "Assigned class": "label 0"
  },
  {
    "Molecule": "COC(=O)/C=C1\\C(=O)C=C2[C@@H]3C[C@H]4C[C@H](CC[C@@]4(C)N21)C3(C)NC(C)=O (stereo partly specified)",
    "Target under test": "MDA-N",
    "Assigned class": "label 0"
  },
  {
    "Molecule": "CO[C@]12CC(=O)C3(C(C[C@H]4CC5CC=C6C[C@@H](OC(C)=O)CC[C@]6(OC(C)=O)C5C[C@@]43C)C1)C1C[C@H]3[C@@H]4CC=C5C[C@@H](OC(C)=O)CC[C@]5(OC(C)=O)[C@H]4CC[C@]3(C)C12 (stereo partly specified)",
    "Target under test": "MDA-N",
    "Assigned class": "label 0"
  },
  {
    "Molecule": "CN1CSC(=S)N(c2cccc(C(F)(F)F)c2)C1",
    "Target under test": "MDA-N",
    "Assigned class": "label 0"
  },
  {
    "Molecule": "C=CCN(CCN(CC=C)S(=O)(=O)c1ccc(C)cc1)S(=O)(=O)c1ccc(C)cc1",
    "Target under test": "MDA-N",
    "Assigned class": "label 0"
  },
  {
    "Molecule": "CC(=O)Oc1c(C)c2c(c3ncccc13)OC(C)C2 (stereo unspecified)",
    "Target under test": "MDA-N",
    "Assigned class": "label 0"
  },
  {
    "Molecule": "Cc1sc2nc(-c3ccc([N+](=O)[O-])cc3)c(/C=N/N=C(N)N)n2c1C",
    "Target under test": "MDA-N",
    "Assigned class": "label 1"
  },
  {
    "Molecule": "COC(=O)c1ccc(/C=C/C2=CC(=O)C=CC2=O)cc1",
    "Target under test": "MDA-N",
    "Assigned class": "label 0"
  }
]
